- target: Recombinant human JAK2 catalytic domain (Homo sapiens (Human), UniProt O60674)
- Sequence (O60674 808-1132): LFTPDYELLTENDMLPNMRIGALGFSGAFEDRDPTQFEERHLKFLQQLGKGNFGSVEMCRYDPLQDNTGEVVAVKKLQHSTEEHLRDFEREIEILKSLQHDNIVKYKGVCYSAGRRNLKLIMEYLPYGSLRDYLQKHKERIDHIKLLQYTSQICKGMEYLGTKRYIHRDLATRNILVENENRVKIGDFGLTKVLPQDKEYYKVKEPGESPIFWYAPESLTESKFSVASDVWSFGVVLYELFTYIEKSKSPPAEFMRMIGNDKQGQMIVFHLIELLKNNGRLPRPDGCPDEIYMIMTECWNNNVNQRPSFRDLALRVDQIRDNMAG
- procedureDetails: JAK2 inhibition assay
- Type: biochemical
- condition: semi-quantitative score
recordedEndpoint: IC50

- chemicalString: "CN(C)C(=O)C1CN(Cc2ccc(-c3cccc4nc(NC(=O)C5CC5)nn34)cc2)C1"
  IC50: "> 1000 nM"
- chemicalString: "O=C(Nc1nc2cccc(-c3ccc(OCc4ccc(Cl)nc4)cc3)n2n1)C1CC1"
  IC50: "< 100 nM"
- chemicalString: "O=C(Nc1nc2cccc(-c3ccc(CN4CCC(C(F)(F)F)CC4)cc3)n2n1)C1CC1"
  IC50: "< 100 nM"
- chemicalString: "CN(C)CC1CN(C(=O)c2ccc(-c3cccc4nc(NC(=O)C5CC5)nn34)cc2)C1"
  IC50: "> 1000 nM"
- chemicalString: "O=C(Nc1nc2cccc(-c3ccc(Oc4ccccc4)cc3)n2n1)C1CC1"
  IC50: "101 to 500 nM"
- chemicalString: "O=C(Nc1nc2cccc(-c3ccc(CN4CCC(F)(F)CC4)cc3)n2n1)C1CC1"
  IC50: "< 100 nM"

Could you report IC50 for every entry in the following list?
1. Cc1ccc(COc2ccc(-c3cccc4nc(NC(=O)C5CC5)nn34)cc2)cn1
2. N#CCc1ccccc1NCc1ccc(-c2cccc3nc(NC(=O)C4CC4)nn23)cc1

Result block:
["< 100 nM", "< 100 nM"]
